// provenance: ChEMBL document CHEMBL4627309

protocol: Inhibition of alpha-glucosidase (unknown origin) using p-NPG as substrate by Dixon plot analysis
Set-up: species or system Homo sapiens
property: pKi
Friendly reminder that pKi comes from taking -log10 of the concentration in mol/L.

Incoming: Answer with the recorded pKi for the molecule listed here: `COc1ccc(/C=C/c2cc(O)cc(O)c2)cc1O`
Outgoing: 4.82

====

protocol: Inhibition of alpha-glucosidase (unknown origin) using p-NPG as substrate by spectrophotometric analysis
Parameters: species or system Homo sapiens
pIC50: −log10 of the molar value.
property: pIC50

Incoming: Answer with the recorded pIC50 for the compound listed here: `COc1ccc(/C=C/c2cc(O)cc(O[C@@H]3O[C@H](COC(=O)c4ccc(O)cc4)[C@@H](O)[C@H](O)[C@H]3O)c2)cc1`
Outgoing: < 4.00

Incoming: Answer with the recorded pIC50 for the compound listed here: `COc1ccc([C@@H]2[C@@H](c3cc(O)cc(O)c3)[C@@H](c3cc(O)cc(O)c3)[C@@H]2c2ccc(OC)c(O)c2)cc1O`
Outgoing: 4.10

Incoming: Answer with the recorded pIC50 for the compound listed here: `COc1ccc(/C=C\c2cc(O)cc(O[C@@H]3O[C@H](COC(=O)/C=C/c4ccc(O)cc4)[C@@H](O)[C@H](O)[C@H]3O)c2)cc1`
Outgoing: < 4.00

Incoming: Answer with the recorded pIC50 for the compound listed here: `COc1ccc(/C=C/c2cc(O)cc(O[C@@H]3O[C@H](CO)[C@@H](O)[C@H](O)[C@H]3O)c2)cc1O`
Outgoing: < 4.00

Incoming: Answer with the recorded pIC50 for the compound listed here: `OC[C@H]1O[C@@H](Oc2cc(O)cc(/C=C/c3ccc(O)cc3)c2)[C@H](O)[C@@H](O)[C@@H]1O`
Outgoing: < 4.00
